Source listed as PubChem BioAssay AID743319.

biological target: Endoplasmic reticulum aminopeptidase 2 (Homo sapiens) (UniProt Q6P179); test: ERAP2 activation by compounds, dose response, selectivity assay for selective ERAP1 modulator project, biochemical, fluorescence plate reader, cherry-picked samples (AID 743319); conditions: recombinant ERAP2, Arg-AMC cleavage fluorescence, 1 h; at 11 µM (top of the series)
Sequence (Q6P179 whole entry, looked up): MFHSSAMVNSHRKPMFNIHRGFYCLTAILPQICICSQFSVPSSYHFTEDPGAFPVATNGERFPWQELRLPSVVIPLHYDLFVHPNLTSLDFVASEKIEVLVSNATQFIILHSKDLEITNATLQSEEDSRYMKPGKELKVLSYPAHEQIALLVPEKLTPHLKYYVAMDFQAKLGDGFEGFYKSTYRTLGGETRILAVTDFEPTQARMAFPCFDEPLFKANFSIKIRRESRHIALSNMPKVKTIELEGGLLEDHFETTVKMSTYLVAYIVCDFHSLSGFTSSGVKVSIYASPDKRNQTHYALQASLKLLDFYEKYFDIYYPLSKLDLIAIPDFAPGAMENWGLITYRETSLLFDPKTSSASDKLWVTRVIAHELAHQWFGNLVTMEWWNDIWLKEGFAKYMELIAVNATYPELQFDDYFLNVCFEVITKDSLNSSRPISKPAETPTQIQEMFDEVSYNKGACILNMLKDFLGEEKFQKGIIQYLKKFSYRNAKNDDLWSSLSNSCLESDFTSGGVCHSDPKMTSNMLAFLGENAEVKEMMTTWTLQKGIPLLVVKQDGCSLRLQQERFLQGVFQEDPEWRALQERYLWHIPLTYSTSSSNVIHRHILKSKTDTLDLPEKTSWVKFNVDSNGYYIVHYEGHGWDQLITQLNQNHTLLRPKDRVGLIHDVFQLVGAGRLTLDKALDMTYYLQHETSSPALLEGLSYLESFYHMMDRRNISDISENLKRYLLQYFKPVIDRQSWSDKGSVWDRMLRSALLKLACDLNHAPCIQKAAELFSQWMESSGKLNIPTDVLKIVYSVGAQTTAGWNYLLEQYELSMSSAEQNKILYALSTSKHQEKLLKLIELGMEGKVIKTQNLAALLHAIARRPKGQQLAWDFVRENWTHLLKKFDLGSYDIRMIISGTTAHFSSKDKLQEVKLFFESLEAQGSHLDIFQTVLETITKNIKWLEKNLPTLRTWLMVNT
Binary call on activation: Fulfilled from 10% upward, Not fulfilled beneath that.

Solved cases (4 shown):
sample-smiles: COc1ccc(CN(C)C[C@@H]2OCCCC[C@@H](C)Oc3ccc(NS(=O)(=O)c4cccs4)cc3C(=O)N([C@@H](C)CO)C[C@H]2C)cc1
assigned-category: Not fulfilled

sample-smiles: O=C(C[C@@H]1CC[C@@H]2[C@H](COC[C@H](O)CN2C(=O)Nc2cccc(Cl)c2)O1)N1CCCCC1
assigned-category: Not fulfilled

sample-smiles: CCCN(C)C[C@@H]1OCCCC[C@H](C)Oc2ccc(NC(=O)Nc3ccc(F)cc3)cc2C(=O)N([C@H](C)CO)C[C@@H]1C
assigned-category: Fulfilled

sample-smiles: C[C@@H]1CCCCO[C@@H](CN(C)S(C)(=O)=O)[C@@H](C)CN([C@@H](C)CO)C(=O)c2cc(NS(=O)(=O)c3ccc(Cl)cc3)ccc2O1
assigned-category: Not fulfilled

*Q* Is reported activation greater than or equal to 10% here: COc1cccc(S(=O)(=O)N(C)C[C@@H]2Oc3ncccc3C(=O)N([C@H](C)CO)C[C@@H]2C)c1
*A* Not fulfilled

*Q* Moving on to the next compound: C[C@@H]1CCCCO[C@@H](CN(C)Cc2ccc(C(=O)O)cc2)[C@@H](C)CN([C@H](C)CO)C(=O)c2cc(NC(=O)Nc3cccc4ccccc34)ccc2O1
*A* Not fulfilled

*Q* Continue with COC(=O)[C@H]1[C@H](CO)[C@H]2Cn3c(ccc(-c4ccncc4)c3=O)[C@H]2N1Cc1ccccc1F
*A* Fulfilled

*Q* // query: COc1ccc(NC(=O)Nc2ccc3c(c2)C(=O)N([C@H](C)CO)C[C@@H](C)[C@@H](CN(C)Cc2ccc(C(=O)O)cc2)OCCCC[C@@H](C)O3)cc1
*A* Not fulfilled

*Q* Moving on to the next compound: C[C@@H]1CCCCO[C@H](CN(C)Cc2ccccc2)[C@H](C)CN([C@H](C)CO)C(=O)c2cc(NS(=O)(=O)c3ccccc3)ccc2O1
*A* Fulfilled

*Q* Now this one: COc1ccc(S(=O)(=O)Nc2ccc3c(c2)C(=O)N([C@@H](C)CO)C[C@H](C)[C@H](CN(C)C)OCCCC[C@@H](C)O3)cc1
*A* Not fulfilled

*Q* Would you mind doing Cc1noc(C)c1S(=O)(=O)Nc1ccc2c(c1)C(=O)N([C@H](C)CO)C[C@@H](C)[C@@H](CN(C)CC1CCCCC1)OCCCC[C@@H](C)O2 as well?
*A* Not fulfilled

*Q* Next record, please: C[C@@H]1CCCCO[C@H](CN(C)Cc2ccc(C(=O)O)cc2)[C@H](C)CN([C@@H](C)CO)C(=O)c2cc(NC(=O)Nc3ccc(C(F)(F)F)cc3)ccc2O1
*A* Fulfilled

*Q* Same again, this time with C[C@H](CO)N1C[C@H](C)[C@@H](CN(C)CC2CC2)Oc2c(NC(=O)Nc3ccc(C(F)(F)F)cc3)cccc2C1=O
*A* Not fulfilled

*Q* Param item: CC(=O)N1CCN(C(=O)C2(NC(=O)Nc3ccc(C)cc3)CCCCC2)CC1
*A* Not fulfilled
